experiment-description: Cy5 fluorescence interference with SSB-bound oligo, artefact control for HCV NS3 helicase inhibitor project, biochemical, NIH Clinical Collection, E. coli SSB (AID 743268)
Kind request: treat 1 as inclusive, so fluorescence ratio at 1 or higher is 1, anything lower is -1.

Worked examples, 8 compounds total:
[[record]]
compound = "CC1=C(CC(=O)O)c2cc(F)ccc2/C1=C\\c1ccc(S(C)=O)cc1 (stereo not given)"
qualitative_label = 1

[[record]]
compound = "CC[N+](C)(C)c1cccc(O)c1"
qualitative_label = 1

[[record]]
compound = "CCc1cc(C(N)=S)ccn1"
qualitative_label = 1

[[record]]
compound = "CNCCCC12CCC(c3ccccc31)c1ccccc12"
qualitative_label = -1

[[record]]
compound = "CN(C)c1ccc(O)c2c1C[C@H]1C[C@H]3[C@H](N(C)C)C(=O)C(C(N)=O)=C(O)[C@@]3(O)C(=O)C1=C2O"
qualitative_label = -1

[[record]]
compound = "O[C@@H](c1cc(C(F)(F)F)nc2c(C(F)(F)F)cccc12)[C@H]1CCCCN1"
qualitative_label = 1

[[record]]
compound = "S=c1nc[nH]c2nc[nH]c12"
qualitative_label = 1

[[record]]
compound = "CC(=O)OCC(CCn1cnc2cnc(N)nc21)COC(C)=O"
qualitative_label = 1


fluorescence ratio >= 1 for CC(C)[N+](C)(CCOC(=O)C1c2ccccc2Oc2ccccc21)C(C)C ?
1

fluorescence ratio >= 1 for CCCCCN=C(N)N/N=C/c1c[nH]c2ccc(OC)cc12 ?
-1

fluorescence ratio >= 1 for C[C@]12CCC(=O)C=C1CC[C@@H]1[C@@H]2[C@@H](O)C[C@@]2(C)[C@H]1CC[C@]2(O)C(=O)CO ?
-1

====

experiment-description: inhibition of endothelial tube formation, primary screen, imaging, VEGF stimulated, CD31 staining, tube area, NPC library (AID 1117340)
measurement-context: VEGF-stimulated ADSC/ECFC co-culture, at 10 µM, stronger effect = higher value
Activity calls are given as the source filed them.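 How the source made its calls: active means compound that reduces growth-factor-driven endothelial tube area in a mixed cell culture, no cutoff stated; inactive means the rest.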
value-kind: tube area decrease

Examples with answers:
[[record]]
molecule = "CCCCCCCCCCCCCCCCCC(=O)O"
value_kind = "tube area decrease"
test_result = "-12.7% (inactive)"

[[record]]
molecule = "COc1ccc(OC)c(C(O)CNC(=O)CN)c1 (stereo not drawn)"
value_kind = "tube area decrease"
test_result = "-15.2% (inactive)"


Report tube area decrease, nothing else, for this molecule: Cc1ccc(C(=O)C(=O)O)cc1C
-6.7% (inactive)

====

Consider the following compounds; for each one, report its parasite % of control.
experiment-description: kinase inhibitors against Plasmodium liver-stage infection, cell-based, known kinase inhibitor set, luminescence, hepatoma host viability (AID 624392);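 also: infected cells incubated roughly two days before readout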
measurement-context: Plasmodium liver stage in hepatoma cells, luciferase luminescence, concentration not given here; stronger effect = lower value
Give bare numbers, in %.

[[record]]
sample_smiles = "Nc1c(C(=O)c2ccc(CCCN3CCOCC3)cc2)cnn1-c1ccc(F)cc1"
value_kind = "parasite % of control"
endpoint_unit = "%"
test_result = 61

[[record]]
sample_smiles = "CS(=O)(=O)c1ccc(Oc2nccc(-c3c(-c4ccc(F)cc4)ncn3C3CCNCC3)n2)cc1"
value_kind = "parasite % of control"
endpoint_unit = "%"
test_result = 128

[[record]]
sample_smiles = "Cn1cc(C2=C(c3cn(C)c4ccccc34)C(=O)NC2=O)c2ccccc21"
value_kind = "parasite % of control"
endpoint_unit = "%"
test_result = 66.6

[[record]]
sample_smiles = "CS(=O)(=O)CCN(CC#N)Cc1ccc(-c2ccc3ncnc(Nc4ccc(OCc5cccc(F)c5)c(Cl)c4)c3c2)o1"
value_kind = "parasite % of control"
endpoint_unit = "%"
test_result = 143


# return parasite % of control for each item in the list
1. CCn1c(-c2nonc2N)nc2c(C#CC(C)(C)O)ncc(OC[C@@H]3CCCN3)c21
2. O=C1NC(=NCCCc2ccccc2)SC1=Cc1ccc2ncccc2c1
3. Nc1c(C(=O)c2cccc(OCCN3CCOCC3)c2)cnn1-c1ccc(F)cc1
4. CN(C)CC#Cc1cccc(C(=O)c2cnn(-c3ccc(F)cc3)c2N)c1
5. O=C(Nc1n[nH]c2nc(-c3ccco3)c(Br)cc12)C1CC1

1. 41.7
2. 43
3. 47.9
4. 74.8
5. 102

====

experiment-description: stimulators of nuclear beta-catenin in C2C12, primary screen, imaging, WNT3A-conditioned medium, mouse C2C12, NPC library (AID 1117326)
measurement-context: stimulation, at 2 µM, stronger effect = higher value
Consider the following compounds; for each one, report its nuclear beta-catenin stimulation.
Numbers only, in %.

Examples with answers:
[[record]]
sample_smiles = "Nc1nc(-c2ccccc2)c(Br)c(=O)[nH]1"
value_kind = "nuclear beta-catenin stimulation"
test_result = 2.1

[[record]]
sample_smiles = "Clc1cccc(Cl)c1NC1=NCCN1"
value_kind = "nuclear beta-catenin stimulation"
test_result = 0.7

[[record]]
sample_smiles = "N[C@H](Cc1c[nH]c2ccccc12)C(=O)O"
value_kind = "nuclear beta-catenin stimulation"
test_result = 1

[[record]]
sample_smiles = "Cc1ccc(O)c2ncccc12"
value_kind = "nuclear beta-catenin stimulation"
test_result = 2.4

[[record]]
sample_smiles = "O=C1NC(=O)C(c2ccccc2)(c2ccccc2)N1"
value_kind = "nuclear beta-catenin stimulation"
test_result = 0.8


# return nuclear beta-catenin stimulation for each item in the list
1. COc1cc(C(=O)N2CCCCCCC2)cc(OC)c1OC
2. Fc1ccc([C@@H]2CCNC[C@H]2COc2ccc3c(c2)OCO3)cc1
3. Cc1cn([C@@H]2O[C@H](CO)[C@@H](O)[C@H]2F)c(=O)[nH]c1=O
4. NC(=S)N/N=C/c1cccnc1
5. OCCN1CCN(CCCN2c3ccccc3Sc3ccc(Cl)cc32)CC1

1: -1.2; 2: 2.8; 3: -0.8; 4: 0.5; 5: 2.8

====

target: Cellular tumor antigen p53 (Homo sapiens)
experiment-description: kinase inhibitors altering GFP-p53 stability in HPV16-positive cells, imaging, known kinase inhibitor set, EGFP/DsRed ratio (AID 1053116);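 also: cells exposed to compounds for 24 h at 37 °C before reading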
measurement-context: stronger effect = higher value
value-kind: EGFP/DsRed ratio
Give bare numbers.

[[record]]
sample_smiles = "O=C1NC(=NCc2c(Cl)cccc2Cl)SC1=Cc1ccc2ncccc2c1"
test_result = 0.0754

[[record]]
sample_smiles = "NC(=O)c1cc(-c2ccncc2)cc(-c2ccccc2)c1N"
test_result = 0.104


Please examine the following record next.
Report EGFP/DsRed ratio, nothing else, for this compound: Cn1cc(C2=C(c3cn(C)c4ccc(OCc5ccccc5)cc34)C(=O)NC2=O)c2ccccc21
0.132

====

experiment-description: growth inhibition of DIPG glioma cells, dose response, cell-based, SU-DIPG-XIII, MIPE5.0, CellTiter-Glo, qHTS (AID 1347064);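 as to AC50: cells exposed to compound for 48 hours before the viability read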
measurement-context: SU-DIPG-XIII viability, CellTiter-Glo ATP luminescence
Results filed as inconclusive are left out. Calls of active or inactive are those of the source. The limit is not given here; nearly all actives have AC50 up to about 23 µM.
Can you answer with just one of these options? YES = active, NO = inactive

Worked examples, 8 molecules total:
[[record]]
molecule = "CCN(CC)C(=S)SSC(=S)N(CC)CC"
qualitative_label = "YES"

[[record]]
molecule = "Nc1c2c(nc3ccccc13)CCCC2"
qualitative_label = "NO"

[[record]]
molecule = "OCCN1CCN(CCCN2c3ccccc3Sc3ccc(C(F)(F)F)cc32)CC1"
qualitative_label = "YES"

[[record]]
molecule = "OC(Cn1cncn1)(Cn1cncn1)c1ccc(F)cc1F"
qualitative_label = "NO"

[[record]]
molecule = "C[C@H]1C[C@@H]2[C@H]([C@@H](O)C[C@@]3(C)[C@H]2CC[C@]3(O)C(=O)CO)[C@@]2(C)C=CC(=O)C=C12"
qualitative_label = "NO"

[[record]]
molecule = "CC(C)C1CCC(C(=O)N[C@H](Cc2ccccc2)C(=O)O)CC1 (stereo not given in full)"
qualitative_label = "NO"

[[record]]
molecule = "Nc1ncn([C@@H]2O[C@H](CO)[C@@H](O)[C@H]2O)c(=O)n1"
qualitative_label = "YES"

[[record]]
molecule = "COc1ccc(-c2oc3ncnc(N)c3c2-c2ccc(NC(=O)Nc3cc(C(F)(F)F)ccc3F)cc2)cc1"
qualitative_label = "YES"


Lab log entry: CC(C)C(=O)Nc1ccc([N+](=O)[O-])c(C(F)(F)F)c1 — outcome as called in the assay?
NO

Lab log entry: CCN(CC)CCCC(C)Nc1ccnc2cc(Cl)ccc12 (stereo not given) — outcome as called in the assay?
NO

Lab log entry: CCCc1cc(=O)[nH]c(=S)[nH]1 — outcome as called in the assay?
NO

Lab log entry: Nc1nc2ccc(OC(F)(F)F)cc2s1 — outcome as called in the assay?
NO

Lab log entry: CC(=O)O[C@]1(C(C)=O)CC[C@H]2[C@@H]3C=C(C)C4=CC(=O)CC[C@]4(C)[C@H]3CC[C@@]21C — outcome as called in the assay?
NO

Lab log entry: C[C@]12CCC(=O)C=C1CC[C@@H]1[C@@H]2[C@@H](O)C[C@@]2(C)[C@H]1CC[C@]2(O)C(=O)CO — outcome as called in the assay?
NO

Lab log entry: CC(=O)OCC(=O)[C@@]1(O)CC[C@H]2[C@@H]3CCC4=CC(=O)C=C[C@]4(C)[C@H]3[C@@H](O)C[C@@]21C — outcome as called in the assay?
NO
